Reported nuclei count values follow for various compounds
Assay: reduction of polyQ htt aggregates in cells – imaging, exon1htt(103Q)mCFP cells, high-content imaging, primary screen (AID 483);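 note: compound exposure lasted 3 days before fixation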;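 for nuclei count: percent of the per-plate median nuclei count of sample wells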
Conditions: exon1htt(103Q)mCFP cell line, aggregate imaging, at 2 µM; measured here: cell count, toxicity

Cc1cccc(C)c1-n1nnnc1SCSc1nnnn1-c1c(C)cccc1C | 101%
COc1ccc(NC(=O)N2CCC(c3nc(-c4cccs4)no3)CC2)cc1 | 56.4%
CCN(CC(=O)NCc1cccs1)C(=O)c1cc(S(=O)(=O)N2CCOCC2)ccc1C | 107%
CCOc1ccc(NS(=O)(=O)c2cc(Cl)ccc2OC)cc1 | 95.4%
Cc1ccc(C)n1-c1ccc(N2CCOCC2)cc1 | 99.8%

Exercise: Endpoint output: nuclei count of `CCOC(=O)N1CCN(C(=O)c2ccc3c(=O)n(CCc4ccccc4)c(=O)[nH]c3c2)CC1` . Value?
Solution: 111%

Exercise: Follow-up entry: `Cc1ccc(Cl)cc1NC(=O)CSc1nnc(C)n1-c1ccccc1`
Solution: 100%

Exercise: # repeat for COc1ccccc1NC(=O)C1CC(=O)N(c2ccc(F)cc2)C1 (stereo unspecified)
Solution: 101%

Exercise: Try this compound next: `COc1ccccc1C(=O)NCC(=O)Nc1ccccc1`
Solution: 94.4%

Exercise: Param item: `CCn1c(SCc2cc(=O)[nH]c3ccccc23)nc2c1c(=O)n(C)c(=O)n2C`
Solution: 93.3%

Exercise: // query: CC1CN(C2CCCCC2)c2nc3c(c(=O)[nH]c(=O)n3C)n2C1 (stereo unspecified)
Solution: 77.6%

---

inhibition values by entry
Assay: endothelial E-selectin expression blockers – imaging, HUVEC, immunofluorescence, MLSMR starter and 10KST1 sets, primary screen (AID 487);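 note: signal is fraction of cell area covered by stained E-selectin grains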
Details: HUVEC TNFalpha-induced E-selectin immunofluorescence imaging, at 2 µM; stronger effect = higher value
Entry rule: numbers only, all in %.

Cc1ccc(F)cc1NC(=O)C1CCCN(c2ncccn2)C1 (stereo not drawn) | -56.9
CC1(C)NC(=O)N(CCCOc2ccc(Br)cc2Cl)C1=O | -4.9
O=C(c1cn(-c2ccccc2)nc1-c1cccs1)N1CCN(c2ccccn2)CC1 | -83
Cc1cc(NC(=O)CSc2nccn2-c2ccc(Cl)cc2)no1 | -65.5
COc1ccc(CCNc2oc(-c3ccccc3OC)nc2C#N)cc1 | -19.1
CC(=O)NC1=NC(=O)/C(=C/N2CCCCC2)S1 | -11.8
O=C(Nc1ccccc1C(=O)N1CCCCCC1)c1cccc(S(=O)(=O)N2CCOCC2)c1 | -60.5
CCOC(=O)c1cccc(NC(=O)CCn2nnc3ccccc32)c1 | -4.7
c1ccc(OCCCn2nnc(-c3ccncc3)n2)cc1 | -57.3
COc1ccc(-n2nc3cc(C)c(N)c(Br)c3n2)cc1 | -17.3

Exercise: Item `COc1ccc(C(=O)CSc2nc(C)cc(=O)[nH]2)cc1` has what recorded inhibition?
Solution: 43.1

Exercise: What about this compound? COC(=O)Cc1[nH]nc2c1C(C1C=CCCC1)C(C#N)=C(N)O2 (stereo not drawn)
Solution: -0.2

Exercise: One more compound: `O=C(CSc1nc2ccccc2o1)N1CCN(C(=O)c2ccco2)CC1`
Solution: -19.5

Exercise: And then `O=C(COc1ccccc1)Nc1ccccc1N1CCN(c2ccccc2)CC1` , what is it?
Solution: -71.5

Exercise: Note, next up: `CSc1nc2ccc(S(=O)(=O)N3CCOCC3)cc2s1`
Solution: -22

Exercise: Do the same for CCOc1cc(C2NC(=O)N(C)C(C)=C2C(=O)OC)cc(Br)c1O (stereo not drawn) please
Solution: -13.7

Exercise: Then what about the compound `CCOc1ccccc1-c1nc(-c2ccc(NC(=O)Cc3ccccc3OC)cc2)no1` ?
Solution: -54.6

Exercise: Again, but for CC1=C(C(=O)OC(C)C)C(C2CC=CCC2)NC(=O)N1 (stereo not drawn)
Solution: 35.9

---

Assay: TLR3 IRF3 reporter activation blockers – cell-based, poly I:C stimulus, luciferase, 10K MLSCN set, primary screen (AID 602277)
Conditions: HEK293-TLR3 RL24 IRF3 luciferase reporter, at 10 µM, stronger effect = higher value
The source made the active and inactive calls.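 The calls were made as follows: active = inhibition of the reporter signal at or above 50%; inactive = inhibition below 50%.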
measure-name: inhibition

CCC(=O)Nc1nn(C)c2nc3c(C)cccc3cc12 | -4.15% (inactive)
CCOC(=O)C1CCCN(S(=O)(=O)c2cccs2)C1 (stereo unspecified) | 4.98% (inactive)
CC(=O)N1CCc2cc(S(=O)(=O)CCC(=O)N3CCN(c4ccccn4)CC3)ccc21 | -27.2% (inactive)
O=C(NS(=O)(=O)c1ccc(NC(=O)C2CCCO2)cc1)c1ccccc1 (stereo unspecified) | 17.7% (inactive)
O=C(NCC(=O)N(CCc1ccccc1)C(C(=O)NC1CCCC1)c1cccnc1)c1ccco1 (stereo unspecified) | 6.57% (inactive)
Cc1noc(NS(=O)(=O)c2ccc(NC(=O)CCC3CCCC3)cc2)c1C | 11.2% (inactive)
CC(=O)Nc1ccccc1OCC(=O)c1cc(C)n(Cc2cccs2)c1C | -26.5% (inactive)
CCCC(CCC)n1[nH]c(=O)c2c(C)cc(C)nc21 | 4.22% (inactive)

Exercise: I'd like to know its inhibition. The compound in question is `Cc1[nH]nc2c1C1(CCN(C(=O)c3ccccc3)CC1)C(C#N)=C(N)O2`
Solution: 32.8% (inactive)

Exercise: Request: `O=C(Oc1ccc2c(c1)CCC2)N1CCOCC1`
Solution: -185% (inactive)

Exercise: Would you mind doing `COCc1nnc(NC(=O)c2ccc(NC(C)=O)cc2)s1` as well?
Solution: -14.7% (inactive)

---

compounds and their reported inhibition of aggregation
Experiment: reduction of polyQ htt aggregates in cells – imaging, exon1htt(103Q)mCFP cells, high-content imaging, primary screen (AID 483);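 note: compound exposure lasted 3 days before fixation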
Details: exon1htt(103Q)mCFP cell line, aggregate imaging, at 2 µM; stronger effect = higher value
Calls of active or inactive are those of the source.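 How the source made its calls: active means visual image review flags a hit and inhibition of aggregation exceeds 20%; inconclusive means visual hit but inhibition at or below 20%; inactive means no hit on visual image review.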

CCCNC(=O)N1CCN(S(=O)(=O)c2ccc(C)c(C)c2)CC1 | -16.1% (inactive)
O=C(NC1=NCCS1)c1ccc2c(c1)C(=O)N(Cc1ccco1)C2=O | 19.6% (inactive)
Cc1ccccc1-c1nc(CN2CCC(C(=O)N3CCC(C(N)=O)CC3)CC2)c(C)o1 | 1.2% (inactive)
COC(=O)CCn1nnc(-c2ccc(C)cc2)n1 | -4.9% (inactive)
Cn1c(=O)[nH]c(=O)c2c1nc(N1CCCCC1)n2CCSc1ncccn1 | -16.6% (inactive)

Exercise: Which inhibition of aggregation is listed for O=C1c2ccccc2C(Nc2ccc3c(c2)OCCO3)N1Cc1ccco1 (stereo unspecified) ?
Solution: 17.5% (inactive)

Exercise: Param item: COc1ccc(OC)c(NC(=O)C23CCC(C)(C(=O)C2)C3(C)C)c1 (stereo unspecified)
Solution: 4.8% (inactive)

Exercise: What do you get for `CC(C)(C)C1=Nn2c(nnc2-c2n[nH]c3c2CCC3)SC1` ?
Solution: -24.6% (inactive)

Exercise: One more compound: `Cc1noc(NS(=O)(=O)c2ccc(N3C(=O)c4ccccc4C3=O)cc2)c1C`
Solution: 6.1% (inactive)

Exercise: Now the same for `Cc1c(Cl)cccc1NC(=O)CCN1CCCCCC1`
Solution: -8.7% (inactive)

Exercise: Another: COc1ccc(C2CC(=O)c3c(C)nc(N4CCN(c5ccccc5)CC4)nc3C2)cc1 (stereo unspecified)
Solution: -5.3% (inactive)

---

Assay: reduction of polyQ htt aggregates in cells – imaging, exon1htt(103Q)mCFP cells, high-content imaging, primary screen (AID 483);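 note: compound exposure lasted 3 days before fixation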;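 for nuclei count: percent of the per-plate median nuclei count of sample wells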
Conditions: exon1htt(103Q)mCFP cell line, aggregate imaging, at 2 µM; measured here: cell count, toxicity
measure-name: nuclei count (%)
Reply with just the number (in %).

O=C(CN1CCC(n2nnc3ccccc32)CC1)Nc1ccc2c(c1)CCC2 | 96.4

Exercise: Can you look up the measured nuclei count of COCCCNC(=O)CC1Oc2ccccc2NC1=O (configuration not stated) for me?
Solution: 87.3

Exercise: Also `CCN(CC)S(=O)(=O)c1ccc2c(c1)nc(SCn1nnc3ccccc3c1=O)n2CC` , if possible.
Solution: 94.2

---

Reported inhibition of aggregation by item:
Test: reduction of polyQ htt aggregates in cells – imaging, exon1htt(103Q)mCFP cells, high-content imaging, primary screen (AID 483);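 note: compound exposure lasted 3 days before fixation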
Details: exon1htt(103Q)mCFP cell line, aggregate imaging, at 2 µM; stronger effect = higher value
Your answer should be a plain number; it is taken to be in %.

A selection of reference data follows.
CCCCN(CC)S(=O)(=O)c1ccc2c(c1)CCCN2C(C)=O | 17.1
CCC(C)NCC(O)COCc1ccc(Cl)cc1 (stereo unspecified) | -4

Exercise: Report inhibition of aggregation for `COc1ccc2c(c1)CCc1cc(C(=O)N3CCN(c4ccc(N5CCOCC5)nn4)CC3)sc1-2` please.
Solution: -28.1

Exercise: Next entry: CC(C(=O)Oc1ccc2c(c1)OCO2)N1C(=O)c2ccccc2C1=O (stereo unspecified)
Solution: 9.8

Exercise: For CC(C)CNC(=O)C1C2C=CC(C2)C1C(=O)O (stereo unspecified) then?
Solution: -8.2

Exercise: Further, for `CCOc1cc(NC(=O)c2ccccn2)c(OCC)cc1NC(=O)CC(C)C` ?
Solution: -0.3
